tested on: Daudi cells; experiment: cytotoxicity assay for ligand-toxin conjugates; assay type: cell-based; conditions: read-out: EC50 (cytotoxicity), 72h, MTT
pEC50: −log10 of the molar value. Where a SMILES comes first, the peptide text is derived from it. [ ]: non-standard residue; d: D form. Dolaproine = CO[C@@H]([C@@H]1CCCN1)[C@@H](C)C(=O)O; Dil = CC[C@H](C)[C@H](NC)[C@@H](CC(=O)O)OC; NMeV = CN[C@H](C(=O)O)C(C)C

| Compound | pEC50 |
| --- | --- |
| CC[C@H](C)[C@@H]([C@@H](CC(=O)N1CCC[C@H]1[C@H](OC)[C@@H](C)C(=O)N[C@@H](Cc1ccccc1)C(=O)O)OC)N(C)C(=O)[C@@H](NC(=O)[C@@H](NC)C(C)C)C(C)C [MMAF, monomethyl auristatin F] (H-[NMeV]V[Dil][Dolaproine]F-OH) | 6.70 |

These measurements were taken from paper PMC5755971.
